- SYSTEM UNDER TEST: T1, ARHGEF11, O15085
- T1 sequence (O15085 42-136, limits assumed, looked up): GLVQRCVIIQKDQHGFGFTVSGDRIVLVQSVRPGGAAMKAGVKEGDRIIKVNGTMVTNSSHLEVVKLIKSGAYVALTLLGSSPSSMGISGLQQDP
- TEST DESCRIPTION: holdup assay
- Design: key: below the threshold = too weak to quantify, mostly under pKd 3.1 to 4
- RUN CONDITIONS: plain residues with an end cap or a label only (N-terminal biotin on a linker: ado-ado)
Tick 1 (yes) if pKd is 4 or greater. Tick 0 (no) if pKd is less than 4.

Hi, just wondering whether WAKEKQHTRL [SLC17A1, Q14916] shows pKd of 4 or higher. 1 (yes)

Say whether QQGLLPHSSC [TYRO3, Q06418] shows pKd of 4 or more. 0 (no)

Textbook exercise: given the entry KIEDVEITLV [FCHSD2, O94868] , state whether its pKd is greater than or equal to 4. 1 (yes)

Could you verify whether the entry PGKKPEDSRV [SLCO2B1, O94956] shows pKd of no less than 4? 0 (no)

Does pKd meet or surpass 4 for KKTPVSRSHL [SLC22A3, O75751] ? 0 (no)

Could you tell me if the measured pKd of TNSKQGETTV [FZD1, Q9UP38] reaches 4 or more? 1 (yes)

Please check the record VYEVPVETKF [SLC26A3, P40879] and state if its pKd is at or above 4. 0 (no)
